Each entry below lists one item and its recorded yeast fitness value.
B1: tRNA (parent)
chain: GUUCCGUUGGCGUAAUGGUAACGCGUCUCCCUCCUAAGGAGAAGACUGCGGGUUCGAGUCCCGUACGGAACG

Variants of: B1
TEST_NAME: yeast fitness relative to wild type (ratio to wild type); higher = fitter; tRNA-Arg(CCU), competitive growth, 37 C, YPD
Fewer inactive variants are shown than the library holds.

Sample records with yeast fitness:
{"MUTATION_LIST": "A42C U53A U54C U64A", "yeast fitness": "≤ 0.5"}
{"MUTATION_LIST": "U2A C34G C49A G50A", "yeast fitness": 0.517}

Record U28C A45U C55A C66A , field yeast fitness: ≤ 0.5

Record C22U C24A A70U , field yeast fitness: ≤ 0.5
